Tested on: Echinocloa crus-galli
Test: Herbicidal post-emergence action
Assay type: in vivo
Details: Echinochloa crus-galli, 504 h, post-emergence method, read-out: herbicidal effect against ECHCG (Echinochloa crus-galli)

Molecule | Assay system | pest or weed control at 80 g/ha (%)
CCc1cc(C)cc(CC)c1C1=C(O)[C@H]2CC3(C[C@H]2C1=O)SCCCS3 [I-f-1] | Echinocloa crus-galli | 90
C=C1COC2(C[C@@H]3C(O)=C(c4c(CC)cc(C)cc4CC)C(=O)[C@@H]3C2)OC1 [I-a-3] | Echinocloa crus-galli | 100
CCOC(=O)OC1=C(c2c(CC)cc(C)cc2CC)C(=O)C2CC(=O)CC12 (stereo not drawn) [I-c-17] | Echinocloa crus-galli | 100

###

System: Setaria viridis
Test: Herbicidal pre-emergence action
Assay type: in vivo
Settings: pre-emergence method, 80 g/ha, greenhouse, visual assessment vs untreated controls
Measurement name: herbicidal effect SETVI

Compound | Measurement name | Experimental value
COc1cc(C)cc(C)c1C1=C(OC(=O)C(C)C)C2CC3(CC2C1=O)OCC=CCO3 (centres unmarked) [I-b-63] | herbicidal effect SETVI | 70%
CCc1cc(C)cc(CC)c1C1=C(O)C2CC(=NOCC(C)C)CC2C1=O (centres unmarked) [I-a-69] | herbicidal effect SETVI | 80%
CCOC(=O)OC1=C(c2c(CC)cc(C)cc2CC)C(=O)[C@@H]2CC3(C[C@H]12)OCCCCO3 (relative stereo) [I-c-9] | herbicidal effect SETVI | 70%
C=C1CC2C(=O)C(c3c(C)cc(C)cc3CC)=C(O)C2C1 (centres unmarked) [I-a-55] | herbicidal effect SETVI | 90%
CCc1cc(C)cc(C)c1C1=C(OC(=O)C(C)(C)C)C2CC3(CC2C1=O)OCCCO3 (centres unmarked) [I-b-74] | herbicidal effect SETVI | 70%
COc1cc(C)cc(C)c1C1=C(O)C2CC3(CC2C1=O)OCCCCO3 (centres unmarked) [I-a-50] | herbicidal effect SETVI | 70%
CCOC(=O)OC1=C(c2c(C)cc(C)cc2C)C(=O)C2CC3(CC12)OCC=CCO3 (racemic) [I-c-51] | herbicidal effect SETVI | 90%
C=C1COC2(CC3C(=O)C(c4c(CC)cc(C)cc4CC)=C(OC(=O)C(C)C)C3C2)OC1 (centres unmarked) [I-b-13] | herbicidal effect SETVI | 100%
C=C1CC2C(=O)C(c3c(C)cc(C)cc3CC)=C(OC(=O)OC)C2C1 (racemic) [I-c-77] | herbicidal effect SETVI | 100%
Cc1cc(C)c(C2=C(OC(=O)C(C)C)C3CC4(CC3C2=O)OCC(C)CO4)c(C)c1 (centres unmarked) [I-b-43] | herbicidal effect SETVI | 60%
CCc1cc(C)cc(CC)c1C1=C(O)[C@H]2CC(=NOC3CC3)C[C@H]2C1=O (relative stereo) [I-a-30] | herbicidal effect SETVI | 70%
COc1cc(C)cc(C)c1C1=C(O)C2CC3(CC2C1=O)OCCO3 (centres unmarked) [I-a-48] | herbicidal effect SETVI | 70%
CCc1cc(C)cc(CC)c1C1=C([O-])C2CC3(CC2C1=O)OC(C)CC(C)O3.[Na+] (centres unmarked) [I-f-2] | herbicidal effect SETVI | 60%
CCc1cc(C)cc(CC)c1C1=C([O-])C2CC3(CC2C1=O)OCC(OCc1ccccc1)CO3.[Na+] (centres unmarked) [I-f-16] | herbicidal effect SETVI | 90%
CCc1cc(C)cc(CC)c1C1=C(O)[C@H]2CC3(C[C@H]2C1=O)OCC(C)(C)CO3 (relative stereo) [I-a-9] | herbicidal effect SETVI | 90%
CCc1cc(C)cc(C)c1C1=C(OC(=O)C(C)(C)C)C2CC3(CC2C1=O)OCCCCO3 (centres unmarked) [I-b-78] | herbicidal effect SETVI | 60%
CCc1cc(C)cc(CC)c1C1=C(O)C2CC3(CC2C1=O)OCCS3 (mixture of isomers) [I-a-35] | herbicidal effect SETVI | 70%

###

System: Setaria viridis
Assay: Herbicidal pre-emergence action
Format: in vivo
Details: pre-emergence method, 80 g/ha, greenhouse, visual assessment vs untreated controls
In this section we review reported herbicidal effect SETVI values for a set of molecules.

Molecule | herbicidal effect SETVI
C=C1COC2(C[C@@H]3C(O)=C(c4c(CC)cc(C)cc4CC)C(=O)[C@@H]3C2)OC1 | 100%
CCc1cc(C)cc(CC)c1C1=C(OC(=O)C(C)(C)C)C2CC3(CC2C1=O)OCCS3 (mixture of isomers) | 90%
CCc1cc(C)cc(C)c1C1=C(OC(C)=O)C2CC3(COC(C)(C)O3)CC2C1=O (stereo not shown) | 80%
CCOC(=O)OC1=C(c2c(C)cc(C)cc2CC)C(=O)C2CC3(CC12)OCCCCO3 (racemic) | 60%
CCc1cc(C)cc(CC)c1C1=C([O-])C2CC3(CC2C1=O)OCC(OC)CO3.[Na+] (stereo not shown) | 90%
CCc1cc(C)cc(CC)c1C1=C(OC(=O)OC(C)C)C2CC3(CC2C1=O)OCCCO3 (stereo not shown) | 80%
CCc1cc(C)cc(CC)c1C1=C(OC(=O)C(C)C)C2CC3(COC(C)(C)O3)CC2C1=O (stereo not shown) [I-b-3] | 50%
CCc1cc(C)cc(C)c1C1=C(O)C2CC3(COC(C)(C)O3)CC2C1=O (stereo not shown) | 90%
CCc1cc(C)cc(CC)c1C1=C(O)C2CC3(CC2C1=O)OCC(C)O3 (mixture of isomers) | 60%
CCOC(=O)OC1=C(c2c(C)cc(C)cc2OC)C(=O)C2CC3(CC12)OCCO3 (racemic) | 70%
CCc1cc(C)cc(CC)c1C1=C(O)[C@H]2CC(=NOC(C)C)C[C@H]2C1=O (relative stereo) | 20%
COc1cc(C)cc(C)c1C1=C([O-])C2CC3(CC2C1=O)OCCCO3.[Na+] (stereo not shown) | 50%
CCc1cc(C)cc(CC)c1C1=C(OC(=O)C(C)(C)C)C2CC3(CC2C1=O)OCCCS3 (mixture of isomers) | 90%
CCOC(=O)OC1=C(c2c(C)cc(C)cc2C)C(=O)C2CC3(CC12)OCCO3 (stereo not shown) | 0%
CCc1cc(C)cc(C)c1C1=C(OC(=O)C(C)C)C2CC3(CC2C1=O)OCC=CCO3 (stereo not shown) | 70%
COc1cc(C)cc(C)c1C1=C(O)C2CC3(CC2C1=O)OCC=CCO3 (stereo not shown) | 90%
CCc1cc(C)cc(CC)c1C1=C(OC(=O)COC)C2CC3(CC2C1=O)OCCCO3 (stereo not shown) | 70%
CCOC(=O)OC1=C(c2c(CC)cc(C)cc2CC)C(=O)C2CC3(CC12)OCCCS3 (mixture of isomers) | 90%
CCc1cc(C)cc(CC)c1C1=C(O)C2CC3(CC2C1=O)OC(C)CC(C)O3 (stereo not shown) [I-a-15] | 70%
CCOC1COC2(CC3C(=O)C(c4c(CC)cc(C)cc4CC)=C(OC(=O)OC)C3C2)OC1 (stereo not shown) | 90%
CCc1cc(C)cc(C)c1C1=C(O)C2CC3(CC2C1=O)OCCO3 (stereo not shown) | 90%
CCc1cc(C)cc(CC)c1C1=C(O)[C@H]2CC(=NOCC3CC3)C[C@H]2C1=O (relative stereo) | 90%
C=C1CC2C(=O)C(c3c(C)cc(C)cc3C)=C(OC(=O)OCC)C2C1 (racemic) | 80%
Cc1cc(C)c(C2=C(OC(=O)C(C)(C)C)C3CC4(COC(C)(C)O4)CC3C2=O)c(C)c1 (mixture of isomers) | 0%
C=C1CC2C(=O)C(c3c(C)cc(C)cc3OC)=C(O)C2C1 (stereo not shown) | 100%
COC(=O)OC1=C(c2c(C)cc(C)cc2C)C(=O)C2CC3(CC12)OCC=CCO3 (racemic) | 70%
CCOC(=O)OC1=C(c2c(C)cc(C)cc2CC)C(=O)C2CC3(CC12)OCCO3 (racemic) | 90%
CCc1cc(C)cc(CC)c1C1=C(O)[C@H]2CC3(C[C@H]2C1=O)OCCCO3 (relative stereo) | 70%

###

System: Alopecurus myosuroides
Experiment: Herbicidal post-emergence action
Format: in vivo
Conditions: post-emergence method, 80 g/ha
In this section we review reported herbicidal effect against ALOMY (Alopecurus myosuroides) values for a set of molecules.
Measurement name: herbicidal effect against ALOMY (Alopecurus myosuroides) (%)

Molecule | Assay system | Experimental value
CCc1cc(C)cc(CC)c1C1=C([O-])C2CC3(CC2C1=O)OC(C)CC(C)O3.[Na+] (stereo not shown) [I-f-2] | Alopecurus myosuroides | 80
CCc1cc(C)cc(CC)c1C1=C([O-])C2CC3(CC2C1=O)OCC=CCO3.[Na+] (stereo not shown) | Alopecurus myosuroides | 100
C=C1CC2C(=O)C(c3c(CC)cc(C)cc3CC)=C([O-])C2C1.[Na+] (stereo not shown) | Alopecurus myosuroides | 80
C=C1CC2C(=O)C(c3c(C)cc(C)cc3OC)=C(OC(=O)OCC)C2C1 (racemic) | Alopecurus myosuroides | 40
CCOC(=O)OC1=C(c2c(CC)cc(C)cc2CC)C(=O)C2CC3(CC12)OC(C)(C)C(C)(C)O3 (stereo not shown) | Alopecurus myosuroides | 60
Cc1cc(C)c(C2=C(OC(=O)C(C)C)C3CC4(COC(C)(C)O4)CC3C2=O)c(C)c1 (mixture of isomers) | Alopecurus myosuroides | 90
CCc1cc(C)cc(CC)c1C1=C(O)[C@H]2CC3(C[C@H]2C1=O)OCCCCO3 (relative stereo) | Alopecurus myosuroides | 90
CCOC(=O)OC1=C(c2c(C)cc(C)cc2OC)C(=O)C2CC3(CC12)OCCCCO3 (racemic) | Alopecurus myosuroides | 100
COc1cc(C)cc(C)c1C1=C(O)C2CC3(CC2C1=O)OCCO3 (stereo not shown) | Alopecurus myosuroides | 80
CCc1cc(C)cc(CC)c1C1=C(OC(=O)OC(C)C)C2CC3(CC2C1=O)OCCS3 (mixture of isomers) | Alopecurus myosuroides | 80
CCc1cc(C)cc(C)c1C1=C(O)C2CC3(CC2C1=O)OCCCO3 (stereo not shown) | Alopecurus myosuroides | 100
C=C1COC2(CC3C(=O)C(c4c(CC)cc(C)cc4CC)=C(OC(=O)C(C)C)C3C2)OC1 (stereo not shown) | Alopecurus myosuroides | 100
CCc1cc(C)cc(CC)c1C1=C([O-])C2CC3(CC2C1=O)OCCO3.[Na+] (stereo not shown) | Alopecurus myosuroides | 80
CCOC(=O)OC1=C(c2c(C)cc(C)cc2C)C(=O)C2CC3(CC12)OCCCO3 (racemic) | Alopecurus myosuroides | 100
CCOC1COC2(CC3C(=O)C(c4c(CC)cc(C)cc4CC)=C([O-])C3C2)OC1.[Na+] (stereo not shown) | Alopecurus myosuroides | 100
CCc1cc(C)cc(CC)c1C1=C(O)C2CC3(CC2C1=O)OCCCS3 (mixture of isomers) | Alopecurus myosuroides | 90
